Listed binders paired with reported kon
Target: T1, His-labeled human CD3E (human, UniProt P07766 23-126)
T1 construct: also called human CD3E antigen; antigen CD3E; not shown: His label
T1 sequence (P07766 23-126): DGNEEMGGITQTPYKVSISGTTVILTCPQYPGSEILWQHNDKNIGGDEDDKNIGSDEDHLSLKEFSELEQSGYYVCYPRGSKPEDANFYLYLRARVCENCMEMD
Test: BLI (Octet), method of Example 3: His-labeled human CD3E on Ni-NTA sensors
Procedure: The binding affinity constants of the purified murine monoclonal antibodies to antigen CD3E were determined by […] (BLI) with the ForteBio Octet RED&QK system from PALL Corporation. Concentration gradients of a multichannel parallel quantitative analysis were set to 3.125, 6.25, 12.5, 25, 50 and 100 nM, and His-labeled human CD3E (10 μg/mL) was coupled to Ni-NTA sensors. […]
Your answer should be a plain number; it is taken to be in M⁻¹ s⁻¹.

- binder: "humanized antibody AB626 (antibody, V domains shown) VH: EVQLLESGGGLVQPGGSLKLSCAASGFTFNTYAMNWVRQAPGKGLEWVGRIRSKINNYATYYADSVKDRFTISRDDSKNTAYLQMNNLKTEDTAMYYCVRHDNFYGSTYSHFADWGQGTLVTVSS VL: ELVVTQEPSLTVSPGGTVTLTCRSSTGVVTTSNYANWVQEKPDHLFTGLIGATNYRAPGTPARFSGSLLGGKAALTLSGVQPEDEAIYFCVLWYSNHWVFGGGTKLTVL"
  kon / M⁻¹ s⁻¹: 9300
- binder: "humanized antibody AB622 (antibody, V domains shown) VH: EVQLLESGGGLVQPGGSLKLSCAASGFTFNTYAMNWVRQAPGKGLEWVGRIRSKINNYATYYADSVKDRFTISRDDSKNTAYLQMNNLKTEDTAMYYCVRHDNFYGSTYSWFADWGQGTLVTVSS VL: ELVVTQEPSLTVSPGGTVTLTCRSSTGVVTTSNYANWVQEKPDHLFTGLIGATNHRAPGTPARFSGSLLGGKAALTLSGVQPEDEAIYFCVLWYSNHWVFGGGTKLTVL"
  kon / M⁻¹ s⁻¹: 270000

Input humanized antibody AB620 (antibody, V domains shown) VH: EVQLLESGGGLVQPGGSLKLSCAASGFTFDTYAMNWVRQAPGKGLEWVGRIRSKINNYATYYADSVKDRFTISRDDSKNTAYLQMNNLKTEDTAMYYCVRHDNFYGSTYSWFADWGQGTLVTVSS VL: ELVVTQEPSLTVSPGGTVTLTCRSSTGVVTTSNYANWVQEKPDHLFTGLIGATDYRAPGTPARFSGSLLGGKAALTLSGVQPEDEAIYFCVLWYSNHWVFGGGTKLTVL . Output kon: 253000
